Numbers sourced from paper PMC5540273.

Tested on: FES;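 note: KINOMEscan kinase panel screen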
Details: concentration: 1 μM,replicates: in singlicate; n = 1
Provide the reported %Inh of each item.
Give bare numbers, in %.

Some entries whose results are on file:
molecule="COc1cc2ncn(-c3cc(OCC4CCCCC4)c(C(N)=O)s3)c2cc1OC [GSK204559]" measured_number=8
molecule="CNC(=O)c1ccccc1Nc1nc(Nc2cccc(CS(C)(=O)=O)c2)ncc1C.O=CO [GSK1520489]" measured_number=38

Please report %Inh for every entry that follows.
1. CS(=O)(=O)c1cccc(CNc2nc(Nc3ccc4c(c3)[C@@H]3C[C@@H]4CNC3=O)ncc2C(F)(F)F)c1
2. Cl.Cl.NC[C@H](CC1CCCCC1)NC(=O)c1ccc(-c2ccnc3[nH]ccc23)s1 [GSK1581428]
3. O=C(Nc1ccc(Oc2ccc3nc(NC(=O)C4CC4)cn3n2)c(F)c1)c1cccn(-c2ccccc2)c1=O
4. COC(=O)Nc1nc2cc(Oc3ccc(NC(=O)Nc4cc(C(F)(F)F)ccc4Cl)cc3)ccc2[nH]1.Cl [GW697465]
5. FC(F)(F)c1cc(Br)cc(Nc2nccc(-c3cnn4ncccc34)n2)c1 [GW810578]
6. Cc1cccc(-c2nc(Nc3ccncc3)c3sccc3n2)n1 [GW869641]

Reply:
1: 85; 2: 5; 3: 13; 4: 0; 5: 0; 6: 7
